These entries and their values trace back to patent US20250236663A1.

test_target: T1, FAM19A5-M5
T1 construct: also called FAM19A5 mutant M5
T1 FAM19A5 mutant: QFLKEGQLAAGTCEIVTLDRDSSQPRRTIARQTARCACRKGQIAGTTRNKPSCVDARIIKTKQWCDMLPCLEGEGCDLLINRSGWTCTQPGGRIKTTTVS
protocol_text: ELISA on phage-displayed FAM19A5 mutants; y axis without label; no blank in the panel, lowest bars about 0.05
result_type: binding result

binder	result
Anti-FAM19A5 (P1-F02) (antibody, V domains shown, Only variable domains are tied to the name) VH: QSLEESGGRLVTPGTPLTLTCTASGFSLSNYYMGWVRQAPGEGLEWIGIIYASGSTYYASWAKGRFTISKTSTTVDLKMTSLTTEDTATYFCARIDIGVGDYGWAYDRLDLWGQGTLVTVSS VL: ELDMTQTPPSLSASVGETVRIRCLASEDIYSGISWYQQKPGKPPTLLIYGASNLESGVPPRFSGSGSGTDYTLTIGGVQAEDAATYYCLGGYSYSSITFGAGTNVEIK	binds
Anti-FAM19A5 (P2-A03) (antibody, V domains shown, Only variable domains are tied to the name) VH: QSVEESGGRLVTPGTPLTLTCTVSGFSLNNYDMSWVRQAPGKGLEYIGFMDTDGSAYYATWAKGRFTISRTSTTVDLKMTSPTTEDTATYFCARRGSSYYGGIDIWGPGTPVTVSL VL: ELDLTQTPASVSEPVGGTVTIKCQASQSIGGNLAWYQQKPGQPPKLLIYRASTLASGVPSRFKGSGSGTDFTLTISDLECADAATYYCQSPAYDPAAYVGNAFGGGTELEIL	binds
